Entries annotated with measured growth
Tested on: OVCAR-8 ovarian
Run description: NCI-60 one-dose screen, 48 h (100 = growth as untreated, 0 = no growth, -100 = all killed)
Measurement conditions: 10 µM unless noted
Method: Growth inhibition of the OVCAR-8 human tumor cell line is measured as a screen for anti-cancer activity. Cells are grown in 96 well plates and exposed to the test compound for 48 hours. Compounds are tested at a single concentration, which is 10^-5 M for most compounds. The reported endpoint is percent growth (GI% or GIPRCNT), where numbers from 0 - 100% represent growth inhibition, and numbers from -100% - 0 represent cell death. For example, a value of 40 represents 60% growth inhibition. […]
The panel holds about 83,000 compounds, 20% with a hit somewhere; the sample as a whole holds those more often.

Compound: CCCNc1nc(N(C)O)nc(N(C)O)n1
System name: OVCAR-8 ovarian
growth [%]: 26.5
//
Compound: O=C(O[C@@H]1Cc2c(O)cc(O)cc2O[C@@H]1c1cc(O)c(O)c(O)c1)c1cc(O)c2c(c1)OCO2
System name: OVCAR-8 ovarian
growth [%]: 103
//
Compound: CC(=O)O[C@@H]1CCN2C(=O)N(C)c3ccccc3[C@@H]2C1
System name: OVCAR-8 ovarian
growth [%]: 109
//
Compound: Cc1oc(-c2ccccc2Cl)cc1C(=O)Nc1ccc(S(N)(=O)=O)cc1
System name: OVCAR-8 ovarian
growth [%]: 98.1
//
Compound: CCC(CC)C(=O)OC(C)COc1ccc(C(C)(C)C)cc1 (configuration not stated)
System name: OVCAR-8 ovarian
growth [%]: 86.2
//
Compound: O=C1C(=O)c2ccccc2C(O)=C1CCCc1ccc(C2CCCCC2)cc1
System name: OVCAR-8 ovarian
growth [%]: 51.4
//
Compound: Cc1ccc(-c2ccc(/C=C(\C#N)c3nc(-c4ccco4)cs3)o2)cc1
System name: OVCAR-8 ovarian
growth [%]: 99.8
//
Compound: CC(C)(C)c1ccc(OP(=S)(N/N=C/c2ccccc2O)Oc2ccc(C(C)(C)C)cc2)cc1
System name: OVCAR-8 ovarian
growth [%]: 82.8
//
Compound: COc1cc(-c2cc3ncccc3c3[nH]c(=O)c4cccnc4c23)cc(OC)c1OC
System name: OVCAR-8 ovarian
growth [%]: 35.9
//
Compound: Cc1ccc(S(=O)(=O)Nc2ccc(-c3cc(-c4cccc(F)c4)c(C#N)c(N)n3)cc2)cc1
System name: OVCAR-8 ovarian
growth [%]: 7.02
//
Compound: Cc1cc(C)n(Cc2cc(C(C)(C)C)cc(C(C)(C)C)c2)c(=O)c1C#N
System name: OVCAR-8 ovarian
growth [%]: 93.4
//
Compound: COc1cnc2c(c1)C(=O)c1c-2n(CCCN2CCN(CCO)CC2)c(=O)c2cc([N+](=O)[O-])ccc12
System name: OVCAR-8 ovarian
growth [%]: 52.5
//
Compound: Brc1ccc2c(c1)c(-c1nc(-c3c[nH]c4ncccc34)cs1)cn2CCCN1CCCCC1
System name: OVCAR-8 ovarian
growth [%]: 1.18
//
Compound: Cn1c(=O)c2c(nc(Br)n2CC(=O)Nc2ccc(F)cc2)n(C)c1=O
System name: OVCAR-8 ovarian
growth [%]: 103
//
Compound: CN(C)CCCC1(c2ccc(F)cc2)OCc2cc(-c3ccc(C(F)(F)F)nc3)ccc21 (configuration not stated)
System name: OVCAR-8 ovarian
growth [%]: 83.6
//
Compound: N#C/C(=C\c1ccc(-c2ccc(Br)cc2)o1)c1nc(-c2ccco2)cs1
System name: OVCAR-8 ovarian
growth [%]: 99.8
//
Compound: CN1CCN(c2ccc3nc(-c4[nH]ncc4Nc4ncnc5c4OCCCN5)[nH]c3c2)CC1
System name: OVCAR-8 ovarian
growth [%]: 0.0729
//
Compound: CC(=O)OC(C)COc1ccc(-c2ccccc2)cc1 (configuration not stated)
System name: OVCAR-8 ovarian
growth [%]: 95.9
//
Compound: N=C(N)c1ccc(S(N)(=O)=O)cc1
System name: OVCAR-8 ovarian
growth [%]: 100
//
Compound: COc1ccc(CCN2C(=O)C(C)(C)SC2=S)cc1OC
System name: OVCAR-8 ovarian
growth [%]: 102
//
Compound: Oc1cccc2ccc(N/N=C/c3cc(CN4CCCCC4)c(O)c4ncccc34)nc12
System name: OVCAR-8 ovarian
growth [%]: 8.27
//
Compound: COc1ccc(-c2cc(-c3cccs3)n(N=O)c(=O)c2C#N)cc1
System name: OVCAR-8 ovarian
growth [%]: 97.4
//
Compound: CC(=O)O[C@H]1CC[C@@]2(C)C(=CC[C@@H]3[C@@H]2CC[C@]2(C)C(=O)N(O)C(=O)C[C@@H]32)C1
System name: OVCAR-8 ovarian
growth [%]: 101
//
Compound: Clc1ccc(Cn2cc(-c3nc4ccc(Br)nc4n3Cc3ccc(Cl)cc3)c3cccnc32)cc1
System name: OVCAR-8 ovarian
growth [%]: 77.2
//
Compound: CC1(C)C(=O)/C(=C\c2ccccn2)C[C@]2(C)[C@H]3CC[C@@H]4[C@@H](C(=O)/C=C/c5ccccn5)CC[C@@]4(C)[C@]3(C)CC[C@@H]12
System name: OVCAR-8 ovarian
growth [%]: 15.5
//
Compound: Cn1cc(-c2csc(-c3cn(CCCN4CCCCC4)c4ccccc34)n2)c2cccnc21
System name: OVCAR-8 ovarian
growth [%]: -68.4
//
Compound: O=C1c2cc3c(cc2-c2c1c1ccc(F)cc1c(=O)n2CCCN1CCOCC1)OCO3
System name: OVCAR-8 ovarian
growth [%]: 47
//
Compound: COC(=O)CCCCCn1c2ccccc2c2c3c(c4c5ccccc5[nH]c4c21)C(=O)N(O)C3=O
System name: OVCAR-8 ovarian
growth [%]: 31.2
//
Compound: O=C1Nc2ccccc2/C1=C/c1cn(CCCn2c3ccccc3c(=O)c3ccccc32)c2ccccc12
System name: OVCAR-8 ovarian
growth [%]: 85
//
Compound: COc1cc2c(cc1-c1c(C)noc1C)ncc1nc(C3CCCCC3)n([C@@H](C)COC(F)F)c12
System name: OVCAR-8 ovarian
growth [%]: 39.1
//
Compound: O=C1c2cc3c(cc2-c2c1c1ccc(Cl)cc1c(=O)n2C[C@H](O)[C@@H](O)[C@H](O)CO)OCO3
System name: OVCAR-8 ovarian
growth [%]: 1.03
//
Compound: N#C/C(=C\c1ccc(-c2ccc(F)cc2)o1)c1nc(-c2ccco2)cs1
System name: OVCAR-8 ovarian
growth [%]: 102
//
Compound: COc1ccc(-c2nc3c(c(C)nn3-c3ccc(F)cc3)c(=O)[nH]2)cc1
System name: OVCAR-8 ovarian
growth [%]: 60.7
//
Compound: COC(=O)[C@]12CC[C@@H](C)[C@H](C)[C@@H]1C1=CC[C@@H]3[C@@]4(C)C[C@@H](OC(C)=O)[C@H](OC(C)=O)[C@@](C)(COC(C)=O)[C@@H]4[C@H](O)C[C@@]3(C)[C@]1(C)CC2
System name: OVCAR-8 ovarian
growth [%]: 16.9
//
Compound: Cc1csc(-c2ccc3c(c2)COC3(CCCN(C)C)c2ccc(F)cc2)c1 (configuration not stated)
System name: OVCAR-8 ovarian
growth [%]: 39
//
Compound: CC(C)=CCC/C(C)=C/CC/C(C)=C/CSC[C@H](NC(=O)CCCCCN1CCN(C)CC1)C(=O)NC1CCCCCC1
System name: OVCAR-8 ovarian
growth [%]: 80.7
//
Compound: O=C(/C(=C(\C(=O)c1ccccc1)c1ccccc1)c1ccccc1)c1ccccc1
System name: OVCAR-8 ovarian
growth [%]: 41.6
